This collection of values is drawn from patent US6727237B2.

- measuredTarget: bacterial NAD synthetase enzyme (Bacillus subtilis)
- assayNotes: biochemical
- Type: biochemical
reportedEndpoint: inhibition at 50 µM (%)
One number for each entry, in %.

Would you please look over these solved cases?
>  <testSmiles>
COC(=O)c1cc2ccccc2n1CCCCCCOC(=O)Cc1ccc([N+](C)(C)C)cc1

>  <measurementUnit>
%

>  <inhibition at 50 µM>
92.5

$$$$
>  <testSmiles>
COC(=O)c1cc2ccccc2n1CCCCCCCCCOC(=O)Cc1ccc([N+](C)(C)C)cc1

>  <measurementUnit>
%

>  <inhibition at 50 µM>
30.8

$$$$
>  <testSmiles>
COC(=O)c1cc2ccccc2n1CCCCCCCCOC(=O)Cc1ccc([N+](C)(C)C)cc1

>  <measurementUnit>
%

>  <inhibition at 50 µM>
92.1

$$$$

Attention now shifts to the item below.
Qu. Provide value of inhibition at 50 µM for this record tested with bacterial NAD synthetase enzyme (Bacillus subtilis): COC(=O)c1cc2ccccc2n1CCCCCCCOC(=O)Cc1ccc([N+](C)(C)C)cc1
Ans. 87.5

###

- measuredTarget: bacterial NAD synthetase enzyme (Bacillus subtilis)
- Sequence (P08164 2-272 limits assumed): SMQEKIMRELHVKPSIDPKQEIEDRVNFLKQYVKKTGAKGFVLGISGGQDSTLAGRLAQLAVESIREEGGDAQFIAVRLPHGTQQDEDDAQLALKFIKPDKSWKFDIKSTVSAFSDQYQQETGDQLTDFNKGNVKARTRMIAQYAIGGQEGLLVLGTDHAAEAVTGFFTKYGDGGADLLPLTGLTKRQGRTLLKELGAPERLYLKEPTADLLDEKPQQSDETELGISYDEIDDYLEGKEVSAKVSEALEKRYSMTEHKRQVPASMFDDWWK
- assayNotes: biochemical
- Type: biochemical
- measurementConditions: compound at 0.2 mM (Table 312A)
Respond with TRUE for % Inhibition values of 10% and above, FALSE for values below.

>  <compound>
CC(=O)c1ccc2[nH]c(CCCCCC[n+]3ccccc3)cc2c1 [Compound 369]

>  <className>
TRUE

$$$$
>  <compound>
Fc1cc(F)c2[nH]c(CCCCCCCC[n+]3cccc4ccccc43)cc2c1 [Compound 413]

>  <className>
FALSE

$$$$
>  <compound>
Fc1cc(F)c2[nH]c(CCCCCCCC[n+]3ccccc3)cc2c1 [Compound 305]

>  <className>
TRUE

$$$$
>  <compound>
C[n+]1cccc(C(=O)OCCCCCCCCn2ccc3cc([N+](=O)[O-])ccc32)c1 [Compound 867]

>  <className>
TRUE

$$$$
>  <compound>
c1ccc(Oc2ccc3[nH]c(CCCCCCC[n+]4cccc5ccccc54)cc3c2)cc1 [Compound 460]

>  <className>
FALSE

$$$$
>  <compound>
COc1ccc2[nH]c(CCCCCCCC[n+]3ccccc3)cc2c1 [Compound 377]

>  <className>
TRUE

$$$$

Qu. Check if % Inhibition >= 10% (inclusive). Item: Fc1cc(F)c2[nH]c(CCCCC[n+]3ccccc3)cc2c1 [Compound 302]
Ans. TRUE

Qu. Cool, now CC(C)c1ccc2[nH]c(CCCC[n+]3ccc4ccccc4c3)cc2c1 [Compound 535]
Ans. TRUE

Qu. Cool, now Fc1ccc2[nH]c(CCCCCC[n+]3ccc4ccccc4c3)cc2c1 [Compound 561]
Ans. TRUE

Qu. Cool, now CCCCc1ccc2[nH]c(CCCC[n+]3cccc4ccccc43)cc2c1 [Compound 421]
Ans. FALSE

Qu. Cool, now FC(F)(F)c1ccc2cc(CCCCCCCC[n+]3ccccc3)[nH]c2c1 [Compound 293]
Ans. TRUE

Qu. Cool, now FC(F)(F)c1ccc2cc(CCCCCC[n+]3ccccc3)[nH]c2c1 [Compound 291]
Ans. TRUE

Qu. Cool, now c1ccc(C(c2ccccc2)(c2ccccc2)c2ccc3[nH]c(CCCCCC[n+]4cccc5ccccc54)cc3c2)cc1 [Compound 447]
Ans. FALSE

Qu. Cool, now O=C(O)c1ccc2[nH]c(CCCC[n+]3ccc4ccccc4c3)cc2c1 [Compound 601]
Ans. FALSE

Qu. Cool, now COC(=O)c1ccc2[nH]c(CCCCC[n+]3cccc4ccccc43)cc2c1 [Compound 488]
Ans. TRUE

Qu. Cool, now c1ccc2c[n+](CCCCCCCc3cc4ccccc4[nH]3)ccc2c1 [Compound 502]
Ans. TRUE

Qu. Cool, now CC(C)c1ccc2[nH]c(CCC[n+]3ccc4ccccc4c3)cc2c1 [Compound 534]
Ans. TRUE
